- TARGET OF ASSAY: T1, extracellular domain of human FGFR1c expressed with C-terminal V5 and hexahistidine tags (human, UniProt P11362 22-376)
- T1 construct: also called hFGFR1c-V5-6His
- T1 sequence: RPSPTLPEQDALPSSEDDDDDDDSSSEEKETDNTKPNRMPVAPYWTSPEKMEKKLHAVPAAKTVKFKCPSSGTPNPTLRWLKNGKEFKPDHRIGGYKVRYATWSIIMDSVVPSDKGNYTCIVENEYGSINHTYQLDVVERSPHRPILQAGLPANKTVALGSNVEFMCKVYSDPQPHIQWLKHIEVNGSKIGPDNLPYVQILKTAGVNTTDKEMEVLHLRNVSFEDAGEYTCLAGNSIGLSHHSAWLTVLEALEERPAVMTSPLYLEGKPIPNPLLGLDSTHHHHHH
- ASSAY PROCEDURE: SPR, mAb captured, 25 C
Would you kindly list 180 nM hFGFR1c-V5-6His Bind (RU) for each of these binders?
Answer with a number only, understood to be in RU.

Query string: // lookup 180 nM hFGFR1c-V5-6His Bind (RU) for H4H8859P (antibody, V domains shown, human IgG4 Fc (H4H prefix)) VH: EVQLVESGGSVVRPGGSLRLSCAASGFTFDVYGMSWVRQAPGKGLEWVSGINWIGGSTGYADSVKGRFTISRDNAKNSLYLQMNSLRAEDTALYYCTREEDYWGQGTLVTVSS VL: DVVMTQSPLSLAVTLGQPASISCRSSQSLVYSDGNTYLNWFQQRPGQSPRRLFYKVSNRDSGVPDRFSGSGSGTDFTLKISRVEAEDVGIYYCMQGIKWPLTFGGGTKVEIK
Result string: 4.9

Query string: Also need H2aM8092N (antibody, V domains shown, mouse IgG2 Fc (H2aM prefix); also called H2M8092N) VH: QVQLQESGPGLVKPSETLSLTCTVSGGSISSYYWSWIRQPPGKGLDWIGHIYYSGTTYYNPSLKSRVSISLDTSKNQFSLKLSSVTAADTAVYYCARHLRGYSSGREFDYWGQGTLVTVSS VL: DIQMTQSPSSLSASVGGRVSLTCRASQSIFSYLNWYQQKPGKAPKLLIYAASNLQSGVPSRFSGSGSGTDFTLTISSLQPEDFATYSCQQSYNIPYTFGQGTKLEIK , thanks.
Result string: -1.3

Query string: Also need H4H8837P (antibody, V domains shown, human IgG4 Fc (H4H prefix)) VH: QVQLVESGGGVVQPGRSLRLSCAASGFTFNSYAMHWVRQAPGMGLEWVAVISSDGSNKYYADSVRGRFTVSRDNSKNTLYLQMNSLRSEDTAVYYCAKDGRGYSSFSHFGMDVWGQGTTVTVSS VL: DIQMTQSPSTLSASVGDRVTITCRASQSIGSWLAWYQQKPGKAPKLLIYKTSSLESGVPSRFSGSGSGTEFTLTISSLQPDDFASYYCQQYNSYSFGQGTKVEIK , thanks.
Result string: 0.2
